In this section, each of the binders is paired with its reported IC50, splenocyte assay, 3.8 pM cIL-23.
biological target: cynomolgus IL-23 (cynomolgus); experiment: cell-based or functional assay
I only need the number, in pM, no unit after it.

[
  {
    "binder": "P23IL37D5-15GS-ALB1-15GS-20B11 (bispecific antibody, part only; not given: anti-albumin Nanobody and linkers, not shown: small tags and cut ends) chain, part: EVQLVESGGGLVQPGGSLRLSCAASGFTLDYLAIGWFRQAPGKEREGVSCVSSSGQYTYYADSVKGRFTISRDNAESTVYLQMNSLKPEDTAVYYCATDPECYRVRGYYNGEYDYWGQGTQVTVSSEVQLVESGGGLVQAGGSLRLSCAVSGDTFSVYGMGWFRQAPGMEREFVAGISWNAGITAYTDTLKGRFTISRDRAKNTMYLQMNSLQPEDTAVYYCAADVTRHYIATRSKVDASMYDYWGQGTQVTVSS",
    "IC50, splenocyte assay, 3.8 pM cIL-23, pM": 5.75
  }
]

// moving on: another record for IC50, splenocyte assay, 3.8 pM cIL-23
// query If you can, please state the reported IC50, splenocyte assay, 3.8 pM cIL-23 value of P23IL37D5-9GS-ALB1 (bispecific antibody, part only; not given: anti-albumin Nanobody, part only) chain, part: EVQLVESGGGLVQPGGSLRLSCAASGFTLDYLAIGWFRQAPGKEREGVSCVSSSGQYTYYADSVKGRFTISRDNAESTVYLQMNSLKPEDTAVYYCATDPECYRVRGYYNGEYDYWGQGTQVTVSSGGGGSGGGS .
// result 419
